- Study target: human recombinant D1 receptor (Homo sapiens, UniProt P21728)
- Sequence (P21728 whole entry): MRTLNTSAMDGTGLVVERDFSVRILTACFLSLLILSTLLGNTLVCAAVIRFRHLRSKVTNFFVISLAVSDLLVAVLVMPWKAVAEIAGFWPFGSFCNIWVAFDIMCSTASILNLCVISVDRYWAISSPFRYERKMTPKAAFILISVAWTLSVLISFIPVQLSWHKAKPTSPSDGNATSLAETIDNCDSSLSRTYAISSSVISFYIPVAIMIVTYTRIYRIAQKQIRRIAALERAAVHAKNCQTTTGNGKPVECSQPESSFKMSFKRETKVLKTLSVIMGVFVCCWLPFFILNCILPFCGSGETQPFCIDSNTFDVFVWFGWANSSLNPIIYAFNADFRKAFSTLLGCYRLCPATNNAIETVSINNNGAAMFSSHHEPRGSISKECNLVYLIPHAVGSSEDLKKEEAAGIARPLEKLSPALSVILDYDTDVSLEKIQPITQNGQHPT
- Experiment description: D1 antagonistic activity test (LANCE cAMP, antagonism of dopamine-induced cAMP production in HEK293 cells)
- Experimental context: HEK293 cells expressing human recombinant D1 receptor; test concentration 0.1 nM to 10000 nM; read-out: D1 Antagonistic Activity (IC50, nmol/L)
Counter-ions that a name gives are not always drawn.
Please go through the items and note down their log10 IC50.
On a log10 scale: recorded IC50, unit nmol/L.

Look up and state reported log10 IC50 for COc1cc2c(cc1C#N)[C@@H]1Cc3ccc(OC)c(OC)c3CN1CC2 [Example 4] 2.49

Look up and state reported log10 IC50 for COc1cc2c(cc1C)[C@@H]1Cc3ccc(OC)c(OC)c3CN1CC2 [Example 1] 1.54

Look up and state reported log10 IC50 for COc1ccc2c(c1OC)CN1CCc3cc4[nH]c(=O)oc4cc3C1C2 (stereo not shown) [Example 46] 2.58

Look up and state reported log10 IC50 for COc1cc2c(cc1O)[C@@H]1Cc3ccc(O)c(OC)c3CN1CC2 [l-SPD, L-Stepholidine, reference compound] 0.89

Look up and state reported log10 IC50 for COc1cc2c(cc1CCO)[C@@H]1Cc3ccc(OC)c(OC)c3CN1CC2 [Example 18] 2.59

Look up and state reported log10 IC50 for COc1cc2c(cc1C=O)[C@@H]1Cc3ccc(OC)c(OC)c3CN1CC2 [Example 6] 1.69

Look up and state reported log10 IC50 for COc1ccc2c(c1OC)CN1CCc3ccc4c(c3C1C2)NC(=O)CO4 (stereo not shown) [Example 50] 2.93

Look up and state reported log10 IC50 for COc1cc2c(cc1OC)[C@@H]1Cc3ccc(OC)c(C#N)c3CN1CC2 [Example 19] 3.11

Look up and state reported log10 IC50 for COc1cc2c(cc1C#N)[C@@H]1Cc3ccc(C#N)c(OC)c3CN1CC2 [Example 37] 2.32

Look up and state reported log10 IC50 for COc1cc2c(cc1OC)[C@@H]1Cc3ccc(C(N)=O)c(OC)c3CN1CC2 [Example 28] 3.33

Look up and state reported log10 IC50 for C=CCOc1cc2c(cc1OC)CCN1Cc3c(ccc(OC)c3OC)C[C@@H]21 [Example 52] 2.34

Look up and state reported log10 IC50 for COc1cc2c(cc1C(C)=O)[C@@H]1Cc3ccc(OC)c(OC)c3CN1CC2 [Example 12] 2.38

Look up and state reported log10 IC50 for COc1cc2c(cc1Br)[C@@H]1Cc3ccc(OC)c(OC)c3CN1CC2 [Example 15] 2.08

Look up and state reported log10 IC50 for COc1cc2c(cc1CO)[C@@H]1Cc3ccc(OC)c(OC)c3CN1CC2 [Example 7] 1.79

Look up and state reported log10 IC50 for COc1ccc2c(c1OC)CN1CCc3cc4c(cc3C1C2)OCC(=O)N4 (stereo not shown) [Example 47] 1.30

Look up and state reported log10 IC50 for COc1ccc2c(c1OC)CN1CCc3cc4ncoc4cc3C1C2 (stereo not shown) [Example 45] 2.06

Look up and state reported log10 IC50 for COc1ccc2c(c1OC)CN1CCc3cc4c(cc3C1C2)C(=O)NC4=O (stereo not shown) [Example 36] 1.42

Look up and state reported log10 IC50 for COc1cc2c(cc1OC)[C@@H]1Cc3ccc(OC)c(OCCO)c3CN1CC2 [Example 56] 3.02

Look up and state reported log10 IC50 for C=Cc1cc2c(cc1OC)CCN1Cc3c(ccc(OC)c3OC)C[C@@H]21 [Example 17] 2.38

Look up and state reported log10 IC50 for COc1cc2c(cc1OC)[C@@H]1Cc3ccc(C#N)c(OC)c3CN1CC2 [Example 27] 2.49

Look up and state reported log10 IC50 for COc1cc2c(cc1OC)[C@@H]1Cc3ccc(OC)c(C=O)c3CN1CC2 [Example 24] 3.11

Look up and state reported log10 IC50 for COc1ccc2c(c1OC)CN1CCc3cc4nc[nH]c4cc3C1C2 (stereo not shown) [Example 44] 2.83

Look up and state reported log10 IC50 for COc1cc2c(cc1NS(C)(=O)=O)[C@@H]1Cc3ccc(OC)c(OC)c3CN1CC2 [Example 60] 2.72

Look up and state reported log10 IC50 for COc1cc2c(cc1OC)[C@@H]1Cc3ccc(CO)c(OC)c3CN1CC2 [Example 30] 3.03

Look up and state reported log10 IC50 for COc1cc2c(cc1C(N)=O)[C@@H]1Cc3ccc(C(N)=O)c(OC)c3CN1CC2 [Example 38] 3.53

Look up and state reported log10 IC50 for COc1cc2c(cc1N)[C@@H]1Cc3ccc(OC)c(OC)c3CN1CC2 [Example 13, hydrochloride] 2.15

Look up and state reported log10 IC50 for COc1ccc2c(c1OC)CN1CCc3cc(OC)c4nc[nH]c4c3[C@@H]1C2 [Example 42] 1.49

Look up and state reported log10 IC50 for COc1cc2c(cc1OC)[C@@H]1Cc3ccc(OC)c(CO)c3CN1CC2 [Example 25] 3.23
